- System: MOLT-4
- PROTOCOL SUMMARY: NCI tumour cell line growth inhibition, 48 h
The source made the active and inactive calls. Cut-off read from the data, not from the text of the source: active = GI50 up to about 1.1 µM and inactive = higher.
Measured GI50 accompanies every entry in the list below.

# MOLECULE, SYSTEM TESTED, GI50
records = [
    ("CC(=O)c1c2c(cc3c1CC1(C3)Cc3cc4c(c(C(C)=O)c3C1)CCC4)CCC2", "MOLT-4", "73.1 µM (inactive)"),
    ("COc1c(CC(C)=O)c2ccccc2n1C(C)=O", "MOLT-4", "> 100 µM (inactive)"),
    ("COc1ccc(-c2nc(Nc3ccccc3)sc2Cc2sc(Nc3ccccc3)nc2-c2ccc(OC)cc2)cc1", "MOLT-4", "12.6 µM (inactive)"),
    ("O=C(c1c(O)cc(O)cc1O)C1Cc2ccccc21 (stereo unspecified)", "MOLT-4", "> 100 µM (inactive)"),
    ("CCN(CC)c1ccc2cc(C(=O)Nc3ccc(C)cc3)c(=N)oc2c1", "MOLT-4", "> 100 µM (inactive)"),
    ("C=CCCCCCCC#CCCCCCCCCCC[C@@H]1C(=O)O[C@H](C)[C@@H]1O.CCCCCCCCC#CCCCCCCCCCC[C@@H]1C(=O)O[C@H](C)[C@@H]1O", "MOLT-4", "12.6 µM (inactive)"),
    ("Nc1cccc(-c2cc(O)c3cc4c(cc3n2)OCO4)c1", "MOLT-4", "2.07 µM (inactive)"),
    ("CC1=NN(c2nc(N)nc(COc3ccc(N)cc3)n2)C(C)(C)C1", "MOLT-4", "> 100 µM (inactive)"),
    ("CSc1ncc2c(C#N)c3n(C)c4ccccc4n3c(=O)c2n1", "MOLT-4", "> 100 µM (inactive)"),
    ("O=C1c2ccccc2C(=O)C12CCc1ccccc12", "MOLT-4", "4.18 µM (inactive)"),
    ("O=c1[nH]cc(F)c(=O)[nH]1 [FLUOROURACIL]", "MOLT-4", "14 µM (inactive)"),
    ("CCN(CC)CCCC(C)Nc1c(Sc2cnc3cc(Cl)ccc3c2NC(C)CCCN(CC)CC)cnc2cc(Cl)ccc12 (stereo unspecified)", "MOLT-4", "2.37 µM (inactive)"),
    ("O=C1Cc2ccccc2CCc2ccccc21", "MOLT-4", "> 100 µM (inactive)"),
    ("O=C1[C@@H]2C(c3ccc(Cl)cc3Cl)=NO[C@@H]2C(=O)N1c1ccc(Cc2ccc(N3C(=O)[C@H]4C(c5ccc(Cl)cc5Cl)=NO[C@H]4C3=O)cc2)cc1", "MOLT-4", "17.3 µM (inactive)"),
    ("COc1ccc(OC)c2c1C1CCC(=O)N1CN2C(C)=O (stereo unspecified)", "MOLT-4", "> 100 µM (inactive)"),
    ("C/C(CCc1ccccc1)=N\\NC(N)=S", "MOLT-4", "72.8 µM (inactive)"),
    ("CC(=O)N1CCC2(c3ccccc3N(C(C)=O)C2c2ccc(O)cc2)C1C(=O)O (stereo unspecified)", "MOLT-4", "> 100 µM (inactive)"),
    ("CCOC(=O)C(C)c1nc2cc(F)c(N3CCOCC3)cc2[nH]c1=O (stereo unspecified)", "MOLT-4", "85.9 µM (inactive)"),
    ("O=S(=O)(O)c1ccc(O)c2ncc(Cl)cc12", "MOLT-4", "> 100 µM (inactive)"),
    ("CCOC(=O)c1c(SC(=O)c2ccc(Cl)cc2)n(-c2ccccc2)c(=S)n(-c2ccccc2)c1=O", "MOLT-4", "> 100 µM (inactive)"),
    ("CCCCCCCCCCCC(=O)C1=C(O)CC(O)CC1=O (stereo unspecified)", "MOLT-4", "88.1 µM (inactive)"),
]

====

- System: OVCAR-5
- PROTOCOL SUMMARY: NCI tumour cell line growth inhibition, 48 h
Activity calls are given as the source filed them. Cut-off read from the data, not from the text of the source: active = GI50 up to about 1.1 µM and inactive = higher.
Measured GI50 accompanies every entry in the list below.

# COMPOUND, SYSTEM TESTED, GI50
records = [
    ("N#Cc1ccccc1-c1nc2c3c(c(N)ccc3n1)C(=O)c1ccccc1-2", "OVCAR-5", "34.8 µM (inactive)"),
    ("O=C(Nc1ccc(Cl)c(Cl)c1)C(=O)C(C(=O)c1ccccc1-c1ccccc1)C1OC(=O)c2ccccc21 (stereo unspecified)", "OVCAR-5", "18.5 µM (inactive)"),
    ("COC(=O)c1cc(C)ccc1CC(Cc1ccc(C)cc1)C(=O)OC (stereo unspecified)", "OVCAR-5", "9.86 µM (inactive)"),
    ("COC(=O)C(CCC1(C)OCCO1)C(C)=O (stereo unspecified)", "OVCAR-5", "> 100 µM (inactive)"),
    ("CC(C)CN1CC(C)C(=O)NC1=O (stereo unspecified)", "OVCAR-5", "> 100 µM (inactive)"),
    ("COc1ccc(/C=N/NC(=O)c2ccccc2Nc2ccccc2C(=O)N/N=C/c2ccc(OC)c(OC)c2)cc1OC", "OVCAR-5", "> 100 µM (inactive)"),
    ("O=c1[nH]c(=O)n(C2OC(CO)C(O)C2O)cc1Oc1ccccc1 (stereo unspecified)", "OVCAR-5", "> 100 µM (inactive)"),
    ("CCOC(=O)/C(O)=C1\\C(=O)N(C)C(=O)C1c1ccc(OC)c(OC)c1 (stereo unspecified)", "OVCAR-5", "> 100 µM (inactive)"),
    ("Oc1cc(-c2ccccc2)nc2cc3c(cc12)OCO3", "OVCAR-5", "> 84.3 µM (inactive)"),
    ("CC(SC(=O)Nc1ccc(/N=N/c2ccccc2)cc1)C(=O)O (stereo unspecified)", "OVCAR-5", "> 100 µM (inactive)"),
    ("O=c1[nH]ncc2[nH]c3c(c12)CCc1ccccc1-3", "OVCAR-5", "44.3 µM (inactive)"),
]

====

What follows is a record of GI50 for HCT-15.
REPORTED PROPERTY: GI50

# SMILES STR, SYSTEM TESTED, REPORTED PROPERTY, REPORTED
data = [
    ("Cc1cc2c(cc1Cl)SC(NN(C)C)=NS2(=O)=O", "HCT-15", "GI50", "> 10 µM"),
    ("CCOC(=O)C(=O)/C(=C\\NC(=S)Nc1ccccc1Cl)C(=O)OCC", "HCT-15", "GI50", "> 100 µM"),
    ("O=c1cc2ccccc2nn1Cc1cccc(Cl)c1", "HCT-15", "GI50", "99.5 µM"),
    ("COc1ccc(/C=N/NC(=O)c2ccccc2Nc2ccccc2C(=O)N/N=C/c2ccc(OC)c(OC)c2)cc1OC", "HCT-15", "GI50", "> 100 µM"),
    ("Cc1c(C)c2c(c(N)c1C#N)C(=O)N(CCN1CCNCC1)C2=O", "HCT-15", "GI50", "35.6 µM"),
    ("Oc1cccc(Nc2cc(O)nc(O)n2)c1", "HCT-15", "GI50", "> 100 µM"),
    ("C/N=C(\\N)N/N=C(\\C)c1ccc2oc3ccc(/C(C)=N/N/C(N)=N/C)cc3c2c1", "HCT-15", "GI50", "> 23 µM"),
]

====

- System: SNB-19
- PROTOCOL SUMMARY: NCI tumour cell line growth inhibition, 48 h
Activity calls are given as the source filed them. Cut-off read from the data, not from the text of the source: active = GI50 up to about 1.1 µM and inactive = higher.
Outcomes: active, inactive

# MOLECULE, CATEGORY LABEL
measured = [
    ("Cc1cc2c(c3c1c1ccccc1n3C)C(=O)c1ccccc1C2=O", "inactive"),
    ("CC(C)CN1CC(C)C(=O)NC1=O (stereo unspecified)", "inactive"),
    ("N/C(=N\\N=C\\c1nc2ccccc2o1)c1cnccn1", "inactive"),
    ("O=c1[nH]cc(F)c(=O)[nH]1", "inactive"),
    ("COc1cc(/C=C2\\N=C(c3ccccc3)N(c3nc4cc(C)c(C)cc4s3)C2=O)cc(OC)c1OC", "inactive"),
    ("N#CC(/N=N/c1ccccc1C(=O)O)C(N)=O (stereo unspecified)", "inactive"),
    ("CN(C)CCNc1ccc2c(=O)n(CCN(C)C)c(=O)n3c4ccc(N)cc4c(=O)c1c23", "active"),
    ("O=C(c1ccccc1)c1ccc2c(c1)nc1n2C(c2c(Cl)cccc2Cl)SC1 (stereo unspecified)", "inactive"),
    ("COc1ccc(/C=C/c2cnnc3ccccc23)cc1OC", "inactive"),
    ("CC(=O)c1c2c(cc3c1CC1(C3)Cc3cc4c(c(C(C)=O)c3C1)CCC4)CCC2", "inactive"),
    ("CCOC(=O)C1=C(O)C(=O)c2c(OC)ccc(OC)c2C1=O", "inactive"),
]

====

Measured GI50 accompanies every entry in the list below.
- Tested on: MDA-N
- PROTOCOL SUMMARY: NCI tumour cell line growth inhibition, 48 h
Calls of active or inactive are those of the source. Rule as the data show it: active = GI50 up to about 1.1 µM and inactive = higher.

# COMPOUND, SYSTEM TESTED, GI50
measured = [
    ("COc1ccc(OC)c2cc(Cc3ccc(N(C)C)cc3)c(=O)c(Cc3ccc(N(C)C)cc3)cc12", "MDA-N", "> 100 µM (inactive)"),
    ("CCOC(=O)C12C3CCC1C2C(=O)C3 (centres undefined)", "MDA-N", "> 100 µM (inactive)"),
    ("Nc1ccccc1CCN1CCN(CCCc2ccccc2)CC1", "MDA-N", "53 µM (inactive)"),
    ("CC1CN=C(Nc2cccc(F)c2)S1 (centres undefined)", "MDA-N", "> 100 µM (inactive)"),
    ("Cc1n[nH]c(=O)n1/N=C/c1ccc([N+](=O)[O-])cc1", "MDA-N", "> 100 µM (inactive)"),
    ("CC(C)(C)c1ccc2c(c1)C#Cc1cc(C(C)(C)C)ccc1OCCCO2", "MDA-N", "> 100 µM (inactive)"),
    ("O=[N+]([O-])/C(Cl)=C(/C(Cl)=C(Cl)Cl)N1CCOCC1", "MDA-N", "2.32 µM (inactive)"),
    ("COc1ccc(/C=C2\\CN(C)CC3C2=NC(=S)NC3c2ccc(OC)cc2)cc1 (centres undefined)", "MDA-N", "1.08 µM (active)"),
    ("CC1=NN(c2ccccc2Cl)C2(C1)C(Cl)C(=O)N2c1nc2ccccc2s1 (centres undefined)", "MDA-N", "62.7 µM (inactive)"),
    ("Cc1cc(N)ccc1C=O", "MDA-N", "> 100 µM (inactive)"),
    ("C(=N\\Cc1ccccc1)/c1ccccc1-c1ccccc1/C=N/Cc1ccccc1", "MDA-N", "5.33 µM (inactive)"),
    ("CC1=CC(C2/C(=N/O)C=C(C)CC2(C)C)C(O)C(C)(C)C1 (centres undefined)", "MDA-N", "17 µM (inactive)"),
    ("CCN(CC)C(=C(C(Cl)=C(Cl)Cl)[N+](=O)[O-])N(CC)CC", "MDA-N", "47.1 µM (inactive)"),
    ("O=C(/C=C/c1ccsc1)c1ccsc1", "MDA-N", "23.2 µM (inactive)"),
    ("O=[N+]([O-])c1ccc2c(c1)Sc1ccccc1N2CCCCCl", "MDA-N", "> 100 µM (inactive)"),
    ("COc1ccc(/C=N/NC(=O)c2ccccc2Nc2ccccc2C(=O)N/N=C/c2ccc(OC)c(OC)c2)cc1OC", "MDA-N", "> 100 µM (inactive)"),
    ("O=[N+]([O-])c1ccc2nc(O)n[n+]([O-])c2c1", "MDA-N", "> 100 µM (inactive)"),
    ("N#Cc1nc(Cc2ccccc2)oc1N", "MDA-N", "> 100 µM (inactive)"),
    ("CCOC(=O)C(=O)/C(=C\\NC(=S)Nc1ccccc1Cl)C(=O)OCC", "MDA-N", "> 100 µM (inactive)"),
    ("FC(F)(Sc1ccccn1)c1nc2ccccc2o1", "MDA-N", "> 100 µM (inactive)"),
    ("CC(C)(C)N1C(=O)c2ccccc2C1(O)C(F)(F)F (centres undefined)", "MDA-N", "84.9 µM (inactive)"),
    ("Cn1c(=O)[nH]c2sc3c(c2c1=N)CCCC3", "MDA-N", "> 75 µM (inactive)"),
    ("CC(=O)c1c2c(cc3c1CC1(Cc4cc5c(cc4C1)CCC5)C3)CCC2", "MDA-N", "> 100 µM (inactive)"),
    ("CC1C2CC(C(S(=O)(=O)O)C2=O)C1(C)C (centres undefined)", "MDA-N", "> 100 µM (inactive)"),
]

From: ChEMBL document CHEMBL1201862
